Target: T1, human [1-305]-mouse chimeric EL (human; mouse, UniProt Q9WVG5 306-500)
T1 construct: Heparin extract, captured or detected by an anti-C2-tag antibody; also called human-mouse chimeric EL
T1 sequence: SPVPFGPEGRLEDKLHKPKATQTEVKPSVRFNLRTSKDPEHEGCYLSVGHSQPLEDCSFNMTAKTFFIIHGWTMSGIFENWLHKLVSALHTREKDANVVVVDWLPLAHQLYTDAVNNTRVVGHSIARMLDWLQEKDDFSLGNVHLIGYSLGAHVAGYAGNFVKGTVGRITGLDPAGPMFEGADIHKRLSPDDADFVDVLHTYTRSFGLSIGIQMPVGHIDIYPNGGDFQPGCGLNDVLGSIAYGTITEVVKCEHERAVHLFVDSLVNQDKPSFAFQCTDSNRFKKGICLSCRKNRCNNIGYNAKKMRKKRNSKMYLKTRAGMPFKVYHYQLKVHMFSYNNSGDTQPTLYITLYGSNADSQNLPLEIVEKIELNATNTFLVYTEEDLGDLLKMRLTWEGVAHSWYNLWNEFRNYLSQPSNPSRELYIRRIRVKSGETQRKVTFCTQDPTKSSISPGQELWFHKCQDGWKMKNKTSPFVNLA
Assay: ELISA: antibody captured on anti-mouse IgG-Fc plate, EL heparin extract added, detection with biotin anti-C2-tag antibody and HRP-streptavidin, A450
Readout: EC50 (read off the curve)

19E7 (antibody, mouse IgG2a, V domains shown, mouse IgG2a from hybridoma; also called 19E1(19E7)) VH: QVQLQQPGSVLVRPGASVKLSCKASGYTFTTYWMHWVKQRPGQGLEWIGEIHPYSGNNNNNEKFKGKATLTVDTSSSTAYVDLSRLTSEDSAVYYCARYDSNYVFAYWGQGTLVTVSA VL: QIVLTQSPAIMSASPGEGVTITCSASSSVSYMHWFQQKPGTSPKLWIYSTSNLASGVPARFSGSGSGTSYSLTISRMEAEDAATYYCQQRDSYLTFGSGTKLEVK: ~6 ng/mL
14E1 (antibody, mouse IgG1, V domains shown, mouse IgG1 from hybridoma) VH: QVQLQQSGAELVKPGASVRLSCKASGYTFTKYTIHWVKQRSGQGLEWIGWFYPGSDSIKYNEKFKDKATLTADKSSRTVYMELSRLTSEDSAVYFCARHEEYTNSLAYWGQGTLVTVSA VL: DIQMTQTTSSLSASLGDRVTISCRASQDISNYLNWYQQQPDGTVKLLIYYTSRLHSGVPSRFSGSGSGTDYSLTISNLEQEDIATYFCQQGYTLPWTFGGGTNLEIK: ~7 ng/mL
16E7 (antibody, mouse IgG1, V domains shown, mouse IgG1 from hybridoma) VH: EVKLVESGGGLVQPGGSLKLSCAASGFTFSSYTMSWVRQTPEKRLELVAEISFTRSRAFYPDTVKGRFTISRDNAKNTLYLQMSSLKSEDTAMYYCARLGGNNYDYWYFDVWGTGTTVTVSS VL: DIVLTQSPTSLAVSLGQRATISCRASESVEYYGTSLMQWYQQKPGQRPKLLIYAASNVESGVPARFSGSGSGTDFSLNIHPVEEDDIAMYFCQQSWKVPFTFGSGTKLEIK: ~6 ng/mL

# evaluate next
For the binder 16B3 (antibody, mouse IgG2a, V domains shown, mouse IgG2a from hybridoma; also called 16B3 (mouse mAb)) VH: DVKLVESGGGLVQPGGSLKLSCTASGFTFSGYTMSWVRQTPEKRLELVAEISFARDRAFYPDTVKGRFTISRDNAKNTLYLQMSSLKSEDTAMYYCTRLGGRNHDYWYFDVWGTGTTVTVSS VL: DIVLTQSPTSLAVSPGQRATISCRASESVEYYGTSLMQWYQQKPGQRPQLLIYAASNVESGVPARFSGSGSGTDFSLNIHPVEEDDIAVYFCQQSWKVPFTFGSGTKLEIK , what EC50 (read off the curve) is on record?
~3 ng/mL
